test system: Pseudomonas aeruginosa PAO1-Xen41; test: EC50 of growth/kill rate concentration-effect curve; settings: medium (conditioned by secondary species or non-conditioned control): H. influenzae
ASSAY_METRIC: EC50 (µg/mL)
Numbers only, in µg/mL.

Worked examples follow.
| MOLECULE | UNIT | EC50 |
| --- | --- | --- |
| C[C@@H]1O[C@@H]1P(=O)(O)O [fosfomycin] | µg/mL | 72.3 |
| CCC(C)CCCC(=O)N[C@@H](CCN)C(=O)N[C@H](C(=O)N[C@@H](CCN)C(=O)N[C@H]1CCNC(=O)[C@H]([C@@H](C)O)NC(=O)[C@H](CCN)NC(=O)[C@H](CCN)NC(=O)[C@H](CC(C)C)NC(=O)[C@@H](CC(C)C)NC(=O)[C@H](CCN)NC1=O)[C@@H](C)O (stereo partly drawn) [colistin] | µg/mL | 0.634 |

Alright, here's another molecule for you.
Request: For the molecule CC(C)(O/N=C(\C(=O)N[C@@H]1C(=O)N2C(C(=O)[O-])=C(C[n+]3ccccc3)CS[C@H]12)c1csc(N)n1)C(=O)O [ceftazidime] , what EC50 is on record?
Response: 1.86

---

test system: Pseudomonas aeruginosa PAO1-Xen41; experiment: EC50 of growth/kill rate concentration-effect curve; settings: medium (conditioned by secondary species or non-conditioned control): MH broth + glucose
ASSAY_METRIC: EC50 (µg/mL)
One number for each entry, in µg/mL.

| MOLECULE | UNIT | EC50 |
| --- | --- | --- |
| CC(C)(O/N=C(\C(=O)N[C@@H]1C(=O)N2C(C(=O)[O-])=C(C[n+]3ccccc3)CS[C@H]12)c1csc(N)n1)C(=O)O [ceftazidime] | µg/mL | 1.71 |

For every record below, what is its EC50?
1. CO[C@H]1/C=C/O[C@@]2(C)Oc3c(C)c(O)c4c(O)c(c(/C=N/N5CCN(C)CC5)c(O)c4c3C2=O)NC(=O)/C(C)=C\C=C\[C@H](C)[C@H](O)[C@@H](C)[C@@H](O)[C@@H](C)[C@H](OC(C)=O)[C@@H]1C [rifampicin]
2. C[C@@H]1O[C@@H]1P(=O)(O)O [fosfomycin]

Response:
1: 26.7; 2: 17.7

---

test system: Pseudomonas aeruginosa PAO1-Xen41; assay: EC50 of growth/kill rate concentration-effect curve; conditions: medium (conditioned by secondary species or non-conditioned control): MH broth + glucose
Provide the recorded log10(EC50) for the entries that follow.
log10 EC50, µg/mL

| COMPOUND | log10(EC50) |
| --- | --- |
| CCC(C)CCCC(=O)N[C@@H](CCN)C(=O)N[C@H](C(=O)N[C@@H](CCN)C(=O)N[C@H]1CCNC(=O)[C@H]([C@@H](C)O)NC(=O)[C@H](CCN)NC(=O)[C@H](CCN)NC(=O)[C@H](CC(C)C)NC(=O)[C@@H](CC(C)C)NC(=O)[C@H](CCN)NC1=O)[C@@H](C)O (stereo partly specified) | 0.09 |

For every record below, what is its log10(EC50)?
1. C[C@H]1[C@H](NC(=O)/C(=N\OC(C)(C)C(=O)O)c2csc(N)n2)C(=O)N1S(=O)(=O)O
2. O=C(O)c1cn(C2CC2)c2cc(N3CCNCC3)c(F)cc2c1=O
3. C[C@@H](O)[C@H]1C(=O)N2C(C(=O)O)=C(S[C@@H]3CN[C@H](C(=O)N(C)C)C3)[C@H](C)[C@H]12

Response:
0.70
-1.36
-0.20

For every record below, what is its log10(EC50)?
1. NC[C@H]1O[C@H](O[C@H]2[C@H](O)[C@@H](O[C@H]3O[C@H](CO)[C@@H](O)[C@H](N)[C@H]3O)[C@H](N)C[C@@H]2N)[C@H](N)C[C@@H]1O
2. CN(C)c1ccc(O)c2c1C[C@H]1C[C@H]3[C@H](N(C)C)C(O)=C(C(N)=O)C(=O)[C@@]3(O)C(O)=C1C2=O

Response:
1: -0.41; 2: 1.29
